# protocol: Toxicity liver stage against HepG2, at 10uM
# Format: cell-based
# Design: test concentration 10 uM, cell line HepG2-A16-CD81EGFP
# condition_parameters: human, HepG2-A16-CD81EGFP cells; read-out: INHIBITION
measured_metric: cytotoxicity at 10 µM (%)
Entry rule: numbers only, all in %.

Before answering, review these 5 worked examples.
Cn1ncnc1-c1ccnc(NCCCc2ccncc2)n1
-1.41
CCOC(=O)N(C)C1CCN(Cc2cnc3ccccn23)CC1
18.1
Cc1nn(C)cc1-c1cc(C(F)F)nc2sc(C(N)=O)c(N)c12
2.6
CCOc1ncccc1C(=O)Nc1c(C)cnn1CC1CC1
1.62
COc1ccc(C2=CCN(C(=O)C3CCS(=O)(=O)C3)CC2)cc1 (configuration not stated)
-7.45

Query: Report cytotoxicity at 10 µM, nothing else, for this molecule: CNC(=O)C1Cc2ccccc2CN1CCC#N (configuration not stated)
Reply: 6.35

Query: Report cytotoxicity at 10 µM, nothing else, for this molecule: Cc1cc(N2CCC(c3n[nH]c4nccnc34)CC2)ncn1
Reply: -25.6

Query: Report cytotoxicity at 10 µM, nothing else, for this molecule: CCc1ccc(C(COC)NC(=O)c2ccc(O)nc2)o1 (configuration not stated)
Reply: 3.06

====

Recorded cytotoxicity at 10 µM for the following molecules
# protocol: Toxicity liver stage against HepG2, at 10uM
# Format: cell-based
# Set-up: test concentration 10 uM, cell line HepG2-A16-CD81EGFP
# condition_parameters: human, HepG2-A16-CD81EGFP cells; read-out: INHIBITION
Entry rule: numbers only, all in %.

CCN(CC(C)C#N)C(=O)CNc1cc(Cl)ccc1C(N)=O (centres undefined)
17.6
Cc1noc(C)c1C(=O)NCCN1CCN(S(C)(=O)=O)CC1
-12.4
Cc1nc(C)n(CC2CCCCN2CC(=O)NCc2ccccn2)n1 (centres undefined)
2.07
COc1ccccc1NC(=O)N1CCCC1c1ccco1 (centres undefined)
-4.78
COCCCN(C)c1ncccc1I
2.28

Query: Report cytotoxicity at 10 µM, nothing else, for this molecule: Cc1cccc(CNc2cc(C3CCCNC3)ccn2)n1 (centres undefined)
Reply: 3.81

Query: Report cytotoxicity at 10 µM, nothing else, for this molecule: Cc1ccnc(C2(C)CCCN2S(=O)(=O)c2c(C)noc2C)n1 (centres undefined)
Reply: 0.795

Query: Report cytotoxicity at 10 µM, nothing else, for this molecule: CC(=O)N1CCCN(CCCc2ccccc2)CC1
Reply: -9.28

Query: Report cytotoxicity at 10 µM, nothing else, for this molecule: COCCN(Cc1ccccn1)C(=O)C1CCCCCN1C (centres undefined)
Reply: 6.32

Query: Report cytotoxicity at 10 µM, nothing else, for this molecule: O=C(CN1CCOC1=O)N1CCc2nnc(-c3ccccc3)n2CC1
Reply: -16.2

Query: Report cytotoxicity at 10 µM, nothing else, for this molecule: N#Cc1ccc(CN2CCNC(=O)C2c2cccs2)cc1 (centres undefined)
Reply: -2.89

====

# protocol: Toxicity liver stage against HepG2, at 10uM
# Type: cell-based
# Parameters: test concentration 10 uM, cell line HepG2-A16-CD81EGFP
# condition_parameters: human, HepG2-A16-CD81EGFP cells; read-out: INHIBITION
Recorded cytotoxicity at 10 µM for the following compounds
Entry rule: numbers only, all in %.

Query: Report cytotoxicity at 10 µM, nothing else, for this compound: CC(C)(C)CC(=O)N1CCc2sccc2C1
Reply: 3.61

Query: Report cytotoxicity at 10 µM, nothing else, for this compound: COCCOCC(=O)Nc1ccnn1-c1ccc(Cl)cc1
Reply: -11.6

Query: Report cytotoxicity at 10 µM, nothing else, for this compound: CS(=O)(=O)NCC(=O)NC1CCCN(c2ccccn2)C1 (centres undefined)
Reply: 1.76

Query: Report cytotoxicity at 10 µM, nothing else, for this compound: Cc1noc(C)c1CN1Cc2cnn(C)c2C(COCC2CC2)C1 (centres undefined)
Reply: -76.5

====

# protocol: Toxicity liver stage against HepG2, at 10uM
# Format: cell-based
# Design: test concentration 10 uM, cell line HepG2-A16-CD81EGFP
# condition_parameters: human, HepG2-A16-CD81EGFP cells; read-out: INHIBITION
Recorded cytotoxicity at 10 µM for the following compounds
Entry rule: numbers only, all in %.

Cc1cnn(CC2CN(CC(=O)Nc3cc(C)no3)CCO2)c1 (stereo unspecified)
-6.13

Query: Report cytotoxicity at 10 µM, nothing else, for this compound: COc1cc(Cl)cc(C(=O)N2CCC3(CCCNC3)C2)c1 (stereo unspecified)
Reply: -7

Query: Report cytotoxicity at 10 µM, nothing else, for this compound: CCc1ccccc1OC1CN(C(=O)c2ccsc2)C1
Reply: 7.46

Query: Report cytotoxicity at 10 µM, nothing else, for this compound: CCc1ncc(C(=O)N2CCN(c3cnn(C)c(=O)c3)CC2)cn1
Reply: -8.3

Query: Report cytotoxicity at 10 µM, nothing else, for this compound: Cc1cc2c(N3CCC(N(C)Cc4nccs4)CC3)ncnc2s1
Reply: 45

Query: Report cytotoxicity at 10 µM, nothing else, for this compound: CC(C)C(=O)NCC(=O)NCC1CCN(c2cnn(C)c(=O)c2)CC1
Reply: 3.47

====

Recorded cytotoxicity at 10 µM for the following compounds
# protocol: Toxicity liver stage against HepG2, at 10uM
# Assay type: cell-based
# Design: test concentration 10 uM, cell line HepG2-A16-CD81EGFP
# condition_parameters: human, HepG2-A16-CD81EGFP cells; read-out: INHIBITION
Entry rule: numbers only, all in %.

Query: Report cytotoxicity at 10 µM, nothing else, for this compound: Cc1ccc(CN(C)c2nccc(-c3cn(C)nc3C)n2)o1
Reply: 4.17

Query: Report cytotoxicity at 10 µM, nothing else, for this compound: Cn1ncc2c1C(COCC1CC1)CN(S(=O)(=O)C1CC1)C2 (centres undefined)
Reply: -74.3

Query: Report cytotoxicity at 10 µM, nothing else, for this compound: CN(CCCOc1ccccc1)C(=O)c1csc(-c2nnc[nH]2)n1
Reply: 10.4

Query: Report cytotoxicity at 10 µM, nothing else, for this compound: O=C(O)C[C@@H]1CCN(C(=O)c2cccs2)C[C@@H]1CCN1CCCCC1
Reply: 2.4

====

Recorded cytotoxicity at 10 µM for the following compounds
# protocol: Toxicity liver stage against HepG2, at 10uM
# Type: cell-based
# Set-up: test concentration 10 uM, cell line HepG2-A16-CD81EGFP
# condition_parameters: human, HepG2-A16-CD81EGFP cells; read-out: INHIBITION
Entry rule: numbers only, all in %.

O=S(=O)(c1cccc(Cl)c1)N1C[C@@H]2CCN[C@@H]2C1
-0.331
CC(O)CN1CCN(C(=O)c2ccc3c(c2)COC3)CC1 (stereo unspecified)
-6.44
c1cnn(CC2CN(c3ncnc4[nH]ccc34)CCO2)c1 (stereo unspecified)
-8.81
CC(c1ccccc1)N(C)C(=O)CN1CCCc2cc(F)cc(F)c21 (stereo unspecified)
27.3
COc1ccc(C(O)CN2CC(n3nc(C)cc3C)C2)cc1 (stereo unspecified)
-15.3

Query: Report cytotoxicity at 10 µM, nothing else, for this compound: Cc1ccc(CC(=O)N2CCCC2Cn2nc(C)cc2C)cn1 (stereo unspecified)
Reply: -9.24

Query: Report cytotoxicity at 10 µM, nothing else, for this compound: CCc1ccc(CN(C(=O)CCn2cc(S(N)(=O)=O)cn2)C2CC2)cc1
Reply: 6.37

Query: Report cytotoxicity at 10 µM, nothing else, for this compound: CC(CNC(=O)c1cc(-n2cccn2)ccn1)Cn1ccnc1 (stereo unspecified)
Reply: -3.43

Query: Report cytotoxicity at 10 µM, nothing else, for this compound: CCN(CC)S(=O)(=O)N1CCCC1CC(=O)c1cccs1 (stereo unspecified)
Reply: 3.62

Query: Report cytotoxicity at 10 µM, nothing else, for this compound: CS(=O)(=O)NC[C@]12COC[C@H]1CN(C(=O)c1ccccc1)C2
Reply: 1.44

Query: Report cytotoxicity at 10 µM, nothing else, for this compound: CC1(CCNC(=O)NCc2ccsc2)OCCO1
Reply: -6.21

====

Recorded cytotoxicity at 10 µM for the following molecules
# protocol: Toxicity liver stage against HepG2, at 10uM
# Format: cell-based
# Set-up: test concentration 10 uM, cell line HepG2-A16-CD81EGFP
# condition_parameters: human, HepG2-A16-CD81EGFP cells; read-out: INHIBITION
Entry rule: numbers only, all in %.

Before answering, review these 4 worked examples.
O=C(CCO)N1CCOC2(CCCN(C(=O)c3ccco3)C2)C1 (stereo not drawn)
-11.7
CC(=O)c1cc(C(=O)NC2(c3ccccc3)CCC2)n(C)c1
-11.7
CC(C)Cc1nnc(NC(=O)NC(CCO)c2cccs2)s1 (stereo not drawn)
0.191
CNc1cc(C)nc(C2COCCN2CCc2ccc(F)cc2)n1 (stereo not drawn)
3.68

Query: Report cytotoxicity at 10 µM, nothing else, for this molecule: O=c1[nH]c(=O)n(CC(O)c2ccccc2Cl)cc1Cl (stereo not drawn)
Reply: 9.71

Query: Report cytotoxicity at 10 µM, nothing else, for this molecule: CNCC(=O)N1CCCCC1c1nccc(C)n1 (stereo not drawn)
Reply: -15.4

Query: Report cytotoxicity at 10 µM, nothing else, for this molecule: CCc1nc2c(c(NC3CCC3)n1)CCN(C(=O)CO)CC2
Reply: 5.42
